- test_method_notes: gradient 5% acetonitrile 3 min, to 50% in 2 min, to 85% in 15 min, held 3 min, 100 µL/min
- experimental_context: column: Zorbax Extend-C18 2.1 x 50 mm; eluents: water / acetonitrile, 0.1% formic acid
We'd kindly ask you to apply these RP-LC retention time classes: low end = under 800 s, middle = from 800 s up to 1000 s, high end = 1000 s and over

- CCCn1cc(S(=O)(=O)NCc2ccc(C)cc2)c2cccnc21: middle
- Cc1c(S(=O)(=O)N2CCCC(C)C2)c(C)n(C)c1C(=O)Nc1cccc(F)c1 (stereo not given): high end
- O=S(=O)(c1ccc(-c2cc(C(F)(F)F)on2)s1)N1CCN(c2ccccn2)CC1: middle
- CCN(CCCNC(=O)C1CCCN(c2ncnc3c2nc2n3CCCCC2)C1)Cc1ccccc1 (stereo not given): low end
- Cc1cc(C)n(Cc2nc(-c3ccc(NC(=O)c4ccsc4)cc3)oc2C)n1: middle
- O=C1CN(Cc2ccc3c(c2)OCO3)C2CS(=O)(=O)CC2N1c1cccc(Cl)c1 (stereo not given): low end
- O=C(Nc1ccc(F)c(F)c1)c1c(O)c2cccnc2n(Cc2ccccc2)c1=O: high end
- COc1ccc2c(c1)C1(CCN(C(=O)NCCC(C)C)C1)C(=O)N2C (stereo not given): low end
- Cc1cccc(NC(=O)N2CCC(OC3CCN(S(C)(=O)=O)CC3)CC2)c1C: low end
- CCOc1ccc2c(n1)CCN(C(=O)C1(c3ccccc3)CC1)C2: middle
- Cc1cccc(NC(=O)N2CCCC2c2cc(C(C)C)on2)c1 (stereo not given): middle
- CCNS(=O)(=O)c1ccc(-c2c(C)noc2C)cc1: low end
- CCc1ccc(NC(=O)Cc2c(C)nn(-c3nc(-c4ccc(C)cc4)cs3)c2C)cc1: high end
- COc1cc(OC)cc(C(=O)NC2CCN(Cc3c(C)noc3C)C2)c1 (stereo not given): low end
- Cc1ccc(C(=O)N2C[C@H](c3nc(-c4cccnc4)no3)[C@@H](C)C2)c(C)c1: middle
- COc1ccccc1-n1c(SCC(=O)Nc2nnc(C)s2)nc2c(c1=O)SCC2: low end
- Cc1sc2ncnc(N3CCCC(C)C3)c2c1C(=O)Nc1ccc(Cl)cc1F (stereo not given): high end
- CCCN1CC(Oc2ccc(-c3noc(-c4cccnc4)n3)cc2)C1: low end
- COc1ncc(C(=O)NCc2cc(F)cc(F)c2)cn1: low end

* * *

- test_method_notes: gradient 5% acetonitrile 3 min, to 50% in 2 min, to 85% in 15 min, held 3 min, 100 µL/min
- experimental_context: column: Zorbax Extend-C18 2.1 x 50 mm; eluents: water / acetonitrile, 0.1% formic acid
Reported RP-LC retention time by item:
quantity_measured: RP-LC retention time (s)

* CCCCN1C(=O)C(C)(C(=O)NCCOC)Oc2cccnc21 (centres undefined) | 781
* Cc1csc(-c2cc(S(=O)(=O)NCc3ccc(OC(C)C)cc3)c(C)s2)n1 | 1060
* O=C(Oc1cccnc1)c1cn(-c2ccc(Cl)cc2)c(=O)c2ccccc12 | 947
* Cc1cc(-c2nn3c(COc4ccccc4)nnc3s2)no1 | 855
* COc1ccc(-c2nnc(COc3ccc(NC(=O)c4cncc(Br)c4)cc3)o2)cc1 | 893
* CCOC(=O)c1ccc(NC(=O)N2CCCC2c2cc(C)no2)cc1 (centres undefined) | 809
* CCOC(=O)c1ccc(NC(=O)N2CCC(n3cnc4cccnc43)CC2)cc1 | 674
* Cc1nn(CCCC(=O)NCc2ccco2)c(=O)c2nn(-c3ccccc3)c(C)c12 | 736
* CC1CC(=O)N(CC(=O)Nc2ccc(C(F)(F)F)cc2)c2ccccc2S1(=O)=O (centres undefined) | 904
* COc1ccc(NC(=O)C2CCN(C(=O)C3Sc4ccccc4NC3=O)CC2)cc1OC (centres undefined) | 692
* O=C(c1cc(-c2ccncc2)n[nH]1)N1CCCC(C(=O)N2CCN(c3ccc(F)cc3)CC2)C1 (centres undefined) | 615
* Cc1nnc(SCC(=O)N2CCOCC2)s1 | 560
* O=C(NCc1ccccc1)C1CC(=O)N(c2ccc3c(c2)CCN3C(=O)C2CCC2)C1 (centres undefined) | 769
* CCc1nc2cccnc2n1CCN1CCN(C(=O)Nc2cccc(Br)c2)CC1 | 616
* O=C(Cn1nc2n(c1=O)CCCC2)Nc1ccc(Cl)cc1 | 688
* COc1ccc(C2(CNC(=O)C(=O)NCC3COc4ccccc4O3)CCOCC2)cc1 (centres undefined) | 899
* CCn1c(N2CCCC(C(=O)NCc3ccc(SC)cc3)C2)cc(=O)n(C)c1=O (centres undefined) | 809
* O=C(NC1CC1)c1cc(N2CCCC2)nc2ccccc12 | 577
* CCn1nc(C)c(CCN(C)C(=O)Cn2nc3n(c2=O)CCC(N)CC3)c1C (centres undefined) | 515
* Cn1nc(C(=O)N2CCCC2)c2c1CCN(C(=O)CCC(=O)N1CCN(c3ccccn3)CC1)C2 | 579
* COc1ccc(NC(=O)C2CN(S(=O)(=O)C3CC3)CC23CCCCC3)c(OC)c1 (centres undefined) | 961
* CCCCn1nc2ccc(S(=O)(=O)N3CCC(C)CC3)cn2c1=O | 970
* COc1cc(-c2nnc(-c3cccc(S(=O)(=O)N4CCCCC4)c3)o2)cc(OC)c1OC | 1010
* CNS(=O)(=O)c1cccnc1Nc1cc(C)cc(C)c1 | 990
* CC(/C=C/c1cccc(Oc2ccc(F)cc2)c1)N(O)C(N)=O (centres undefined) | 927
* COc1cc(OC)cc(C(=O)NC(C)C(=O)Nc2nc3ccccc3[nH]2)c1 (centres undefined) | 656
* COc1ccc2c(c1)C1(CCN(C(=O)Nc3cccc(F)c3)C1)C(=O)N2C (centres undefined) | 811
* Cc1ncc(C(=O)NC2CC2)c(=O)n1CC(=O)Nc1cc(F)ccc1F | 705
* O=C(Nc1ccc2c(c1)OCCO2)c1cccc(-c2cnc(N3CCCC3)nc2)c1 | 845
* COc1cccc(N2CCN(c3ccnc(SCC(=O)Nc4c(C)cc(C)cc4C)n3)CC2)c1 | 861
* Cc1ccc(S(=O)(=O)NCc2ccccc2)cc1 | 908
* Cc1ccc(N2C(=O)CN(S(C)(=O)=O)CC2(C)C(=O)NCc2ccc(Cl)cc2)cc1C (centres undefined) | 874
* OC[C@H]1O[C@@H](c2ccc(Cl)c(Cc3ccc(O[C@H]4CCOC4)cc3)c2)[C@H](O)[C@@H](O)[C@@H]1O | 736
* COc1ccc(NC(=O)Nc2nccn(-c3ccc(C(C)C)cc3)c2=O)cc1OC | 1010
* Cc1c(S(=O)(=O)CCNC(=O)NCc2ccc(F)cc2)c2ccccc2n1C | 737
* COc1cccc(CNC(=O)c2cn3cccc(C)c3n2)c1OC | 541
* CCc1cc(C(=O)Nc2ccc(F)c(F)c2)no1 | 952
* CS(=O)(=O)N(C1CCOCC1)C1CN(C(=O)Cc2c[nH]c3ccccc23)C1 | 667
* COc1ccc(N2CCN(c3nc4c(c(Nc5ccccc5)n3)C(=O)CCC4)CC2)cc1 | 1210

* * *

- test_method_notes: gradient 5% acetonitrile 3 min, to 50% in 2 min, to 85% in 15 min, held 3 min, 100 µL/min
- experimental_context: column: Zorbax Extend-C18 2.1 x 50 mm; eluents: water / acetonitrile, 0.1% formic acid
quantity_measured: RP-LC retention time (s)

- Cc1ccc(C(=O)NCc2noc(C3CCCC3)n2)cc1: 842
- Cc1cc(C)c2c(N3CCCC3)nc(C(=O)N(C)Cc3ccccc3)nc2n1: 654
- CCCCC(=O)Nc1nc(-c2ccc3c(c2)N(CCC)C(=O)CO3)cs1: 1010
- CS(=O)(=O)N1CCN(Cc2cc3nc(-c4cccc5[nH]ncc45)nc(N4CCOCC4)c3s2)CC1: 706
- CSc1cccc(NC(=O)C2CC(=O)N(c3ccc4c(c3)CCN4C(C)=O)C2)c1 (configuration not stated): 730
- CCn1ccc2cc(S(=O)(=O)N3CCC(C(=O)N4CCN(c5ccccc5)CC4)CC3)ccc21: 671
- Cc1nnc(C2CC3(CCN(CC(C)C)CC3)CN2Cc2ccccc2)o1 (configuration not stated): 566
- CC1(C(=O)NC2CCCC2)Cn2cnc(C(=O)NCc3ccccc3F)c2C(=O)N1C1CC1 (configuration not stated): 778
- O=C(c1ccc(-c2cccnc2)nc1)N1CCN(c2ccc(F)cc2)CC1: 671
- Cc1ccc2[nH]cc(CCN3CC(C(=O)Nc4ccc5c(c4)CCC5)CC3=O)c2c1 (configuration not stated): 925
- O=S(=O)(c1ccc(C2CCCCC2)cc1)N1CCOCC1: 1050
- O=c1c2cc(-c3ccc(F)cc3)nn2cnn1Cc1nc(-c2cccc(C(F)(F)F)c2)no1: 1200
- COc1ccc(CCN2CC(=O)N(c3ccc(C)c(C)c3)[C@@H]3CS(=O)(=O)C[C@@H]32)cc1: 886
- Cc1cc(NC(=O)NC(=O)c2ccccc2NC(=O)C(C)N)ccc1Oc1ncc(Br)cn1 (configuration not stated): 715
- O=c1cc(-c2ccncc2)nc(N2CCCC2)n1Cc1cccc(F)c1: 1230
- CCCN1CCN(CCNc2nnc(-c3nc(C4CC4)no3)c3ccccc23)CC1: 597
- CNC(=O)C1CCCN(c2nc3ncn(CC(=O)Nc4ccccc4Cl)c(=O)c3s2)C1 (configuration not stated): 654
- COCCN1C(=O)c2ccccc2C(C(=O)NCCCN2CCOCC2)C1c1cccs1 (configuration not stated): 805
- COc1ccc(CCNS(=O)(=O)c2cc3c4c(c2)CCC(=O)N4CCC3)cc1OC: 766
- CCOC(=O)COc1cc(-c2ccc(F)cc2)nc2ccc(NC(=O)C3CCC3)cc12: 810
- COc1ccc(F)cc1S(=O)(=O)NC1CCc2nnc(C3CC3)n2CC1 (configuration not stated): 641
- Cc1ccc(-c2noc(-c3cccc(S(=O)(=O)N4CCN(C)CC4)c3)n2)cc1: 735
- NC(=O)c1ccccc1NC(=O)NC1CC(=O)N(c2ccc(Cl)cc2)C1 (configuration not stated): 667
- COc1ccc(-c2ccc(=O)[nH]n2)cc1OC: 582
- Cc1ccc(-c2noc(C3CCCN3S(=O)(=O)c3cc(C)c(C)cc3C)n2)cc1 (configuration not stated): 1340
- CCCCCn1c(=O)c2ccccc2n(Cc2nc(-c3ccc(OCC)c(OC)c3)no2)c1=O: 1230
- Cc1ccc(-c2nc(-c3ccc4c(c3)ncn4CCC(=O)N3CCCC3)no2)s1: 753
- CN1c2cc(Cl)ccc2C(=O)NC12CCN(C(=O)Nc1ccc3c(c1)OCCO3)CC2: 781
- Cc1ccc(C)c(NS(=O)(=O)c2cc(-c3cc(C(F)(F)F)on3)sc2C)c1: 1320
- CCOC(=O)c1ccc(NC(=O)N(C)Cc2nc3cc(C(=O)N(C)C)ccc3n2C)cc1: 634
- CC(C)C(=O)Nc1ccc2nc(N3CCN(CC(=O)N4CCCC4)CC3)cc(C(=O)O)c2c1: 561
- O=C(NCCC1=CCCCC1)C1CCN(C(=O)c2ncn3c2COC(c2ccccc2)C3)CC1 (configuration not stated): 820
- Cc1ccc(NC(=O)Nc2nccn(-c3cccc(Cl)c3)c2=O)cc1C: 1090
- COc1ccc(-c2nc3cnccn3c2Nc2ccc(C(N)=O)cc2)cc1: 612
- Cc1nc(-c2ccccc2Cl)sc1C(=O)N1CCN(c2ccccn2)CC1: 661
- C=CCn1ccc2c(OCC(=O)NC3CCCC3)cccc2c1=O: 788
- CCCCS(=O)(=O)c1cc2c(cc1NC(=O)c1cccc(F)c1)n(C)c(=O)n2C: 966
